tested on: HIV in the HTLV-1 transformed cell line MT-4; assay: organism not typed; type: cell-based; conditions: MT4, 96 h, MT-4 cells; luciferase/cell titer glo readout after 96 hours; 10 point dose response
pIC50: −log10 of the molar value.
Property: pIC50; scope: individual compounds

[
  {
    "compound": "Cc1ccc(-c2c(C)c3c(c(C)c2[C@H](OC(C)(C)C)C(=O)O)CN(C(=O)c2cccc4c2OCCO4)C3)cc1 [Example 105]",
    "system-tested": "HIV in the HTLV-1 transformed cell line MT-4",
    "pIC50": 7.85
  },
  {
    "compound": "Cc1ccc(-c2c(C)c3c(c(C)c2[C@H](OC(C)(C)C)C(=O)O)CN(C(=O)OC(C)(C)C)C3)cc1 [Example 126]",
    "system-tested": "HIV in the HTLV-1 transformed cell line MT-4",
    "pIC50": 7.89
  },
  {
    "compound": "Cc1ccc(-c2c(C)c3c(c(C)c2[C@H](OC(C)(C)C)C(=O)O)CN(C(=O)c2ccc(C(F)(F)F)cc2)C3)cc1 [Example 227]",
    "system-tested": "HIV in the HTLV-1 transformed cell line MT-4",
    "pIC50": 7.85
  },
  {
    "compound": "Cc1ccc(-c2c(C)c3c(c(C)c2[C@H](OC(C)(C)C)C(=O)O)CN(C(=O)C2CC4(CCC4)C2)C3)cc1 [Example 118]",
    "system-tested": "HIV in the HTLV-1 transformed cell line MT-4",
    "pIC50": 7.85
  }
]

----------
test system: HIV in the HTLV-1 transformed cell line MT-4; assay: organism not typed; assay type: cell-based; details: MT4, 96 h, MT-4 cells; luciferase/cell titer glo readout after 96 hours; 10 point dose response
pIC50: −log10 of the molar value.

[
  {
    "compound": "Cc1ccc(-c2c(C)c3c(c(C)c2[C@H](OC(C)(C)C)C(=O)O)CN(CC2CCCCC2)C3)cc1",
    "pIC50": 7.33
  },
  {
    "compound": "Cc1ccc(-c2c(C)c3c(c(C)c2[C@H](OC(C)(C)C)C(=O)O)CN(S(=O)(=O)N2CCC(F)(F)C2)C3)cc1",
    "pIC50": 7.85
  },
  {
    "compound": "Cc1c(-c2c(C)c3c(c(C)c2[C@H](OC(C)(C)C)C(=O)O)CN(C(=O)N2CCCCC2)C3)ccc2c1NCCO2",
    "pIC50": 8.40
  },
  {
    "compound": "Cc1cc(Cl)ccc1-c1c(C)c2c(c(C)c1[C@H](OC(C)(C)C)C(=O)O)CN(C(=O)C1CCCCC1)C2",
    "pIC50": 7.89
  },
  {
    "compound": "Cc1ccc(-c2c(C)c3c(c(C)c2[C@H](OC(C)(C)C)C(=O)O)CN(C(=O)OCC(C)(C)C)C3)cc1",
    "pIC50": 8.30
  },
  {
    "compound": "Cc1c(-c2c(C)c3c(c(C)c2[C@H](OC(C)(C)C)C(=O)O)CN(Cc2cccc(F)c2)C3)cc(F)c2c1CCCO2 (atropisomer, axis not shown; (M))",
    "pIC50": 8.30
  },
  {
    "compound": "Cc1ccc(-c2c(C)c3c(c(C)c2[C@H](OC(C)(C)C)C(=O)O)CN(C(=O)c2ccc(F)cc2)C3)cc1",
    "pIC50": 8.40
  },
  {
    "compound": "Cc1ccc(-c2c(C)c3c(c(C)c2[C@H](OC(C)(C)C)C(=O)O)CN(C(=O)c2ccccc2C(C)(C)C)C3)cc1",
    "pIC50": 7.89
  },
  {
    "compound": "Cc1cc(F)cc(C(=O)N2Cc3c(C)c(-c4cc(F)c5c(c4C)CCCO5)c([C@H](OC(C)(C)C)C(=O)O)c(C)c3C2)c1 (atropisomer, axis not shown; (M))",
    "pIC50": 8.70
  },
  {
    "compound": "Cc1c(-c2c(C)c3c(c(C)c2[C@H](OC(C)(C)C)C(=O)O)CN(C(=O)c2cccc(F)c2)C3)ccc2c1CCCO2",
    "pIC50": 8.70
  },
  {
    "compound": "Cc1ccc(-c2c(C)c3c(c(C)c2[C@H](OC(C)(C)C)C(=O)O)CN(C(=N)N2CCCCC2)C3)cc1",
    "pIC50": 5.07
  },
  {
    "compound": "Cc1ccc(-c2c(C)c3c(c(C)c2[C@H](OC(C)(C)C)C(=O)O)CN(C(=O)N2CCC(N4CCOCC4)CC2)C3)cc1",
    "pIC50": 5.64
  }
]

Just for reference, patent US10112899B2 is where these values come from.
